Recorded viability, T/C, one value per entry.
- Tested on: 855422-203-R-J1-PDC spheroids with HUVEC/MSC, viability;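 further: agents incubated with spheroids for one week before read-out; 100% = DMSO vehicle-treated control wells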
- experiment-summary: Anticancer human tumor 855422-203-R-J1-PDC patient-derived bladder carcinoma cell line growth inhibition [PI3K]
- condition-summary: second compound 0.1 µM; first compound 0.1 µM; active compounds read low
Report the value in % with no unit label.

Examples from the recorded data:
molecule	viability, T/C, %
CC(C)NCC(C(=O)N1CCN(c2ncnc3c2C(C)CC3O)CC1)c1ccc(Cl)cc1 (stereo unspecified) + CC(Nc1ncnc2nc[nH]c12)c1cc2cccc(Cl)c2c(=O)n1-c1ccccc1	88.2
C=CC(=O)N1CCN(c2nc(=O)n(-c3c(C)ccnc3C(C)C)c3nc(-c4c(O)cccc4F)c(F)cc23)C(C)C1 (stereo unspecified) + CC(Nc1ncnc2nc[nH]c12)c1cc2cccc(Cl)c2c(=O)n1-c1ccccc1	90.7
C[C@@H](NC(=O)c1ncnc(N)c1Cl)c1ncc(C(=O)Nc2cc(C(F)(F)F)c(Cl)cn2)s1 + CC(Nc1ccc2c(c1)OCCn1cc(N3C(=O)OCC3C(F)F)nc1-2)C(N)=O	61.5
C[C@@H](NC(=O)c1ncnc(N)c1Cl)c1ncc(C(=O)Nc2cc(C(F)(F)F)c(Cl)cn2)s1 + COc1c(OCCCN2CCOCC2)ccc2c3n(c(=NC(=O)c4cnc(N)nc4)nc12)CCN3	38.3
Cn1ncc(Cl)c1-c1cc(C(=O)NC(CN)Cc2cccc(F)c2)sc1Cl (stereo unspecified) + CC(Nc1ccc2c(c1)OCCn1cc(N3C(=O)OCC3C(F)F)nc1-2)C(N)=O	61.6

Would you kindly look at the next entry?
stdin: So what does the record say about viability, T/C for Cn1nccc1Nc1nccc(-c2ccn(C(CO)c3ccc(Cl)c(F)c3)c(=O)c2)n1 (stereo unspecified) + CC(Nc1ccc2c(c1)OCCn1cc(N3C(=O)OCC3C(F)F)nc1-2)C(N)=O ?
stdout: 79.4
